compounds and their reported pKd
target: PTPN21 FERM domain (FERM^PTPN21) (Homo sapiens); construct: FERM domain, residues 21 to 319 (18 to 319 stated for the crystal); E. coli Rosetta (DE3), His-sumo tag removed; C-terminal EGFP fusion for MST; Flag-tagged for PIP-strips; monomer; assay: microscale thermophoresis (FERM-EGFP)
Sequence (Q16825 21-319): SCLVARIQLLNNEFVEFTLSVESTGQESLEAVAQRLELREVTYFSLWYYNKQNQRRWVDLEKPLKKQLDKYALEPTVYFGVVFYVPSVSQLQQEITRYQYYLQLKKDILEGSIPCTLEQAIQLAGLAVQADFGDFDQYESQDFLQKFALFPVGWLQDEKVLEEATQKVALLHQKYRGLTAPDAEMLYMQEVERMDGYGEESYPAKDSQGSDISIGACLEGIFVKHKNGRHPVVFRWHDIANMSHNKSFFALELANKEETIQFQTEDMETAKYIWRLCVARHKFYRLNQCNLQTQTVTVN
pKd: −log10 of the molar value.
measured.parameter: pKd

O=P(O)(O)O[C@@H]1[C@@H](O)[C@H](OP(=O)(O)O)[C@H](O)[C@H](O)[C@H]1O [ins(1,5)P2] | ~5.88
O=P(O)(O)O[C@@H]1[C@H](O)[C@H](OP(=O)(O)O)[C@@H](O)[C@H](O)[C@H]1O [ins(1,3)P2] | ~5.21
